assay system: TRPM8 (Homo sapiens)
procedure text: TRPM8 receptor agonist assay (Fluo-8 calcium, FLIPR)
Type: cell-based
Parameters: host or cells: CHO cells, stably transfected
experimental parameters: relative to menthol = 1.0 (Table 2)
Relative Potency: recorded values
Please respond with just the number, no unit label.

Look over these answered cases.
CCCCCCCCP(=O)(C(C)C)C(C)C; 5.4
CCCCP(=O)(C(C)CC)C(C)CC (stereo not shown) [DAPA-2-4, 1-Di(sec-butyl) phosphinoyl-butane]; 0.3
CCCCCCCCP(=O)(C(C)CC)C(C)CC (stereo not shown) [DAPA-2-8, 1-Di(sec-butyl) phosphinoyl-octane]; 2.9

Now look at this entry.
Quick note, Relative Potency for CCC(C)P(=O)(CCC(C)C)C(C)CC (stereo not shown) landed at 0.9

====

assay system: TRPM8 (Homo sapiens, UniProt Q7Z2W7)
Sequence (Q7Z2W7 whole entry): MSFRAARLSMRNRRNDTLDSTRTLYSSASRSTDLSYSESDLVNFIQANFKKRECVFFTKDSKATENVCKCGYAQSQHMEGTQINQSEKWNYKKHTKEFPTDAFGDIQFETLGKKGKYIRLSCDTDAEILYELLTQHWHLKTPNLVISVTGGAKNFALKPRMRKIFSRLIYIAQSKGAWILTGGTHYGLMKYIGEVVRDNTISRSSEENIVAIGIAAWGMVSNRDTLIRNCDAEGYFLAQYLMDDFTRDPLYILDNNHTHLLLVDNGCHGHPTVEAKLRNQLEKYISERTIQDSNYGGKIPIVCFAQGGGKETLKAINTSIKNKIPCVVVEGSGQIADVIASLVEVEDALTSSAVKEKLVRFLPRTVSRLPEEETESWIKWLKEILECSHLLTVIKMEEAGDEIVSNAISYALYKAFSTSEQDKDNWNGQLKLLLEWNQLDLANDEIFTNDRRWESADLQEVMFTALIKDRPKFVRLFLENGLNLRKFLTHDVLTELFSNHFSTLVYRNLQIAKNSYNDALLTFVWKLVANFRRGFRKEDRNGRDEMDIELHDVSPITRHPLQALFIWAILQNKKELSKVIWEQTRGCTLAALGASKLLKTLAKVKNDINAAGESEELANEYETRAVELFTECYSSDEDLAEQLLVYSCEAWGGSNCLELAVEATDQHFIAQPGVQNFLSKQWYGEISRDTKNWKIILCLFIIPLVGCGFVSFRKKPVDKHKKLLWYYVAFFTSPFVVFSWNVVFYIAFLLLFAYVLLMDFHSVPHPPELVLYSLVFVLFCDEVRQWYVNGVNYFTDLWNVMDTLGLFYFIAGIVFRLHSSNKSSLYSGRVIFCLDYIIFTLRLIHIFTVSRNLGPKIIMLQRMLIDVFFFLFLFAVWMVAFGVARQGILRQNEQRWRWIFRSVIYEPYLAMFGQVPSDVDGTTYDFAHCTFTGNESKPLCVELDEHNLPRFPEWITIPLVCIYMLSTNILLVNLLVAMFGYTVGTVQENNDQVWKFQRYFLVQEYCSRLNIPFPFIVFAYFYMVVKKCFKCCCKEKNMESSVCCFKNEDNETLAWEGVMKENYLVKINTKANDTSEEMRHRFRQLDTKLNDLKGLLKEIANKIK
procedure text: TRPM8 receptor agonist assay (Fluo-8 calcium, FLIPR)
Format: cell-based
Design: host or cells: CHO cells, stably transfected
experimental parameters: TRPM8 relative potency as repeated in Table 4
×Menthol: recorded values

CCCCCCP(=O)(C(C)C)C(C)C [DIPA-1-6, 1-Diisopropyl-phosphinoyl-hexane]; 1.6

Quick note, ×Menthol for CCCCCCCCP(=O)(C(C)CC)C(C)CC (stereo not shown) [DAPA-2-8, 1-Di(sec-butyl) phosphinoyl-octane] landed at 2.9

====

Test system: human circular smooth muscle
procedure text: Spontaneous contractions of human colon circular smooth muscle strips in organ bath
experimental parameters: amplitude of spontaneous contractions, human distal colon circular muscle; read-out: median inhibitory concentration (IC50)
result type: pIC50
Keep it numeric: pIC50 is minus log10 of the concentration in mol/L.

Quick note, pIC50 for CCCCCP(=O)(C(C)CC)C(C)CC (stereo not shown) [DAPA-2-5, 1-Di(sec-butyl) phosphinoyl-pentane] landed at 4.47

====

Relative Potency: recorded values
assay system: TRPM8 (Homo sapiens, UniProt Q7Z2W7)
procedure text: TRPM8 receptor agonist assay (Fluo-8 calcium, FLIPR)
Type: cell-based
Design: host or cells: CHO cells, stably transfected
experimental parameters: relative to menthol = 1.0 (Table 2)
Please respond with just the number, no unit label.

Look over these answered cases.
CCCCCCCP(=O)(C(C)CC)C(C)CC (stereo not shown) [DAPA-2-7, 1-Di(sec-butyl) phosphinoyl-heptane]; 3.4
CCCCCCP(=O)(C(C)CC)C(C)CC (stereo not shown) [DAPA-2-6, 1-Di(sec-butyl) phosphinoyl-hexane]; 4.7
CCCCCP(=O)(C(C)CC)C(C)CC (stereo not shown) [DAPA-2-5, 1-Di(sec-butyl) phosphinoyl-pentane]; 2.2

Quick note, Relative Potency for CCCCCP(=O)(C(C)C)C(C)C landed at 0.7

====

assay system: TRPM8 (Homo sapiens, UniProt Q7Z2W7)
procedure text: TRPM8 receptor agonist assay (Fluo-8 calcium, FLIPR)
Type: cell-based
Parameters: host or cells: CHO cells, stably transfected
experimental parameters: TRPM8 relative potency as repeated in Table 4
result type: ×Menthol
Please respond with just the number, no unit label.

The reported TRPM8 (Homo sapiens, UniProt Q7Z2W7) ×Menthol of CCCCCCCP(=O)(C(C)C)C(C)C is 5.4

====

assay system: TRPM8 (Homo sapiens, UniProt Q7Z2W7)
procedure text: TRPM8 receptor agonist assay (Fluo-8 calcium, FLIPR)
Type: cell-based
Parameters: host or cells: CHO cells, stably transfected
experimental parameters: TRPM8 relative potency as repeated in Table 4
×Menthol: recorded values
Please respond with just the number, no unit label.

Quick note, ×Menthol for CCCCCCCP(=O)(C(C)CC)C(C)CC (stereo not shown) [DAPA-2-7, 1-Di(sec-butyl) phosphinoyl-heptane] landed at 3.4

Quick note, ×Menthol for CCCCCP(=O)(C(C)CC)C(C)CC (stereo not shown) [DAPA-2-5, 1-Di(sec-butyl) phosphinoyl-pentane] landed at 2.2

Quick note, ×Menthol for CCCCP(=O)(C(C)CC)C(C)CC (stereo not shown) [DAPA-2-4, 1-Di(sec-butyl) phosphinoyl-butane] landed at 0.3

Quick note, ×Menthol for CCCCCCP(=O)(C(C)CC)C(C)CC (stereo not shown) [DAPA-2-6, 1-Di(sec-butyl) phosphinoyl-hexane] landed at 4.7

Quick note, ×Menthol for CCCCCCCCCP(=O)(C(C)C)C(C)C [DIPA-1-9, 1-[Diisopropyl-phosphinoyl]-nonane] landed at 4.0

Quick note, ×Menthol for CCCCCP(=O)(C(C)C)C(C)C [DIPA-1-5, 1-Diisopropyl-phosphinoyl-pentane] landed at 0.7

Quick note, ×Menthol for CCCCCCCCP(=O)(C(C)C)C(C)C [DIPA-1-8, 1-Diisopropyl-phosphinoyl-octane] landed at 5.4
